# IC50 values compiled below
- study_target: interaction between the KRAS protein subtype G12D and the SOS1 protein (Homo sapiens, UniProt Q07889)
- Construct: GST-TEV-SOS1(564-1049) (Viva Biotech, SOS1-191010); purchased SOS1: Viva Biotech; KRAS: Shanghai Panchao Biotechnology Co., Ltd. SOS1-191010
- Sequence (Q07889 564-1049): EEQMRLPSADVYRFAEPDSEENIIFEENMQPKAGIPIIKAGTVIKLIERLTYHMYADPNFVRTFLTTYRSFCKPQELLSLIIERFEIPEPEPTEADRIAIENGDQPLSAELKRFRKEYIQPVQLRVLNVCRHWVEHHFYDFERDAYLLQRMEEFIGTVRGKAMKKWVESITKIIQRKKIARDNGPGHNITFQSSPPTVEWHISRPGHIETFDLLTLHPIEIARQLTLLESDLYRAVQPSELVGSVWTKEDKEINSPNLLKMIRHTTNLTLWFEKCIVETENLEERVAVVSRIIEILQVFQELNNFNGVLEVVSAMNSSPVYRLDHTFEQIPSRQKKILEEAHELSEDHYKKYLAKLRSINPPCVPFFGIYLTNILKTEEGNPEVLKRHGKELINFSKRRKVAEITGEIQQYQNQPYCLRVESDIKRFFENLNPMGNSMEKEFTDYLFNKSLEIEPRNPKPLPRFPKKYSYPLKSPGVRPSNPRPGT
- assay: Inhibition of the interaction between KRAS G12D and SOS1 protein (AlphaLISA/AlphaScreen)
- Format: binding
- condition_details: KRAS G12D + GST-TEV-SOS1(564-1049) + GDP
reported_endpoint: IC50 (nM)

>>> print(df.to_string())
                                   molecule  value_unit  observed_value
0  Cc1nc(N[C@H](C)c2cccc(C(F)F)c2F)c2cc([C@]3(O)CC[C@@H](O)CC3)c(=O)[nH]c2n1 [Example 18-p1]          nM              20
1  Cc1nc(N[C@H](C)c2cccc(C(F)(F)CO)c2F)c2cc(C3=CCOCC3)c(=O)[nH]c2n1          nM              22
2  COCC(=O)N1CCC(c2cc3c(N[C@H](C)c4cccc(C(F)F)c4F)nc(C)nc3[nH]c2=O)CC1          nM              19

----------
# IC50 values compiled below
- study_target: interaction between the KRAS protein subtype G12V and the SOS1 protein (Homo sapiens, UniProt Q07889)
- Construct: GST-TEV-SOS1(564-1049) (Viva Biotech, SOS1-191010); purchased SOS1: Viva Biotech; KRAS: Shanghai Panchao Biotechnology Co., Ltd. SOS1-191010
- assay: Inhibition of the interaction between KRAS G12V and SOS1 protein (AlphaLISA/AlphaScreen)
- Type: binding
- condition_details: KRAS G12V + GST-TEV-SOS1(564-1049) + GDP
reported_endpoint: IC50 (nM)

In [3]: df
Out[3]:
                                   compound  observed_value
0  Cc1nc(N[C@H](C)c2cccc(C(F)F)c2F)c2cc([C@]3(O)CC[C@H](O)CC3)c(=O)[nH]c2n1 [Example 18-p2]             112
1  Cc1nc(N[C@H](C)c2cccc(C(F)F)c2F)c2cc(C3=CCC(C(=O)N(C)C)CC3)c(=O)[nH]c2n1 (stereo partly drawn) [Example 13]              79
2  Cc1nc(N[C@H](C)c2cccc(C(F)F)c2F)c2cc([C@]3(O)CC[C@H](O)CC3)c(=O)n(C)c2n1 [Example 28-p2]             187
